Source: patent EP4786489A1

# experimentalSystem: T1, heterodimeric receptor complex (IL-22Rα/IL-10Rβ) (human, UniProt Q8N6P7 16-574; Q08334 20-325)
# T1 sequence (looked up) 1: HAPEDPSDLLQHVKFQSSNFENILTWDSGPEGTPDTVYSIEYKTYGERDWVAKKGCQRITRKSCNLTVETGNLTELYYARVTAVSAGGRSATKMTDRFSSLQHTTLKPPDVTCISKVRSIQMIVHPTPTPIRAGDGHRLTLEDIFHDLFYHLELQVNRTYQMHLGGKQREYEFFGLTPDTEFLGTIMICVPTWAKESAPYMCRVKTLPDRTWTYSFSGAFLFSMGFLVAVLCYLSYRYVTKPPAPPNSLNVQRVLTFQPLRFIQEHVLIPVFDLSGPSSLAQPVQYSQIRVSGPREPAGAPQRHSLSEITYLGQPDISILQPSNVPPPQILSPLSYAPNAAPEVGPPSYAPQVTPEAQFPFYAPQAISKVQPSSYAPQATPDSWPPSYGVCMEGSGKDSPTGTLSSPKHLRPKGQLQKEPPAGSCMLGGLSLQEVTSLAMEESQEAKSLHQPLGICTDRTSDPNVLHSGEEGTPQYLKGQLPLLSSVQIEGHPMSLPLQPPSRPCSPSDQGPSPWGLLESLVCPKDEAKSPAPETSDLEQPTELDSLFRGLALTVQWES
# T1 sequence (looked up) 2: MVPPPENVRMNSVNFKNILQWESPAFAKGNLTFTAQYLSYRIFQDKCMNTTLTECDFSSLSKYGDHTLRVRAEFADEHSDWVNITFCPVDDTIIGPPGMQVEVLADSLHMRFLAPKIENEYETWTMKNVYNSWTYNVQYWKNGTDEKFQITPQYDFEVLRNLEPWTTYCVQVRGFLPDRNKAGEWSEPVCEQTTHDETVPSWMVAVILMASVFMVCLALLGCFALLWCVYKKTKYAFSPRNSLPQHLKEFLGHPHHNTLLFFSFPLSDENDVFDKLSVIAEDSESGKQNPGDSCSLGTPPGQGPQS
# testDescription: cell-based or functional assay
Kindly note that classification relies on STAT3 Activation EC50 (nM); pSTAT3 FACS, HT29 cells with these boundaries: lower bin (below 2 nM), middle bin (2 nM to below 20 nM), upper bin (20 nM or more)

40K-PEG-IL22-D109C (ligand, Cys at position 76 (SEQ ID NO:1 numbering) conjugated to 40 kDa PEG-maleimide (thioether linkage)) APISSHCRLDKSNFQQPYITNRTFMLAKEASLADNNTDVRLIGEKLFHGVSMSERCYLMKQVLNFTLEEVLFPQSCRFQPYMQEVVPFLARLSNRLSTCHIEGDDLHIQRNVQKLKDTVKKLGESGEIKAIGELDLLFMSLRNACI ... lower bin
40K-PEG-IL22-P120C (ligand, Cys at position 87 (SEQ ID NO:1 numbering) conjugated to 40 kDa PEG-maleimide (thioether linkage)) APISSHCRLDKSNFQQPYITNRTFMLAKEASLADNNTDVRLIGEKLFHGVSMSERCYLMKQVLNFTLEEVLFPQSDRFQPYMQEVVCFLARLSNRLSTCHIEGDDLHIQRNVQKLKDTVKKLGESGEIKAIGELDLLFMSLRNACI ... middle bin
60K-PEG-IL22-D109C (ligand, Cys at position 76 (SEQ ID NO:1 numbering) conjugated to 60 kDa PEG-maleimide (thioether linkage)) APISSHCRLDKSNFQQPYITNRTFMLAKEASLADNNTDVRLIGEKLFHGVSMSERCYLMKQVLNFTLEEVLFPQSCRFQPYMQEVVPFLARLSNRLSTCHIEGDDLHIQRNVQKLKDTVKKLGESGEIKAIGELDLLFMSLRNACI ... lower bin
hB3-his (ligand) APISSHCRLDKENFQQPYITNRTFMLAKEASLADNNTDVRLIGEKLFHGVSMSERCYLMKQVLNFTLEEVLFPQSDRFQPYMAEVVPFLAALSNALSTCHIEGDDLHIQRNVQKLKDTVKKLGESGEIKAIGELDLLFMSLRNACIHHHHHH ... middle bin
40K-PEG-IL22-P50C (ligand, Cys at position 17 (SEQ ID NO:1 numbering) conjugated to 40 kDa PEG-maleimide (thioether linkage)) APISSHCRLDKSNFQQCYITNRTFMLAKEASLADNNTDVRLIGEKLFHGVSMSERCYLMKQVLNFTLEEVLFPQSDRFQPYMQEVVPFLARLSNRLSTCHIEGDDLHIQRNVQKLKDTVKKLGESGEIKAIGELDLLFMSLRNACI ... upper bin
80K-PEG-IL22-P50C (ligand, Cys at position 17 (SEQ ID NO:1 numbering) conjugated to 80 kDa PEG-maleimide (thioether linkage)) APISSHCRLDKSNFQQCYITNRTFMLAKEASLADNNTDVRLIGEKLFHGVSMSERCYLMKQVLNFTLEEVLFPQSDRFQPYMQEVVPFLARLSNRLSTCHIEGDDLHIQRNVQKLKDTVKKLGESGEIKAIGELDLLFMSLRNACI ... middle bin
60K-PEG-IL22-P120C (ligand, Cys at position 87 (SEQ ID NO:1 numbering) conjugated to 60 kDa PEG-maleimide (thioether linkage)) APISSHCRLDKSNFQQPYITNRTFMLAKEASLADNNTDVRLIGEKLFHGVSMSERCYLMKQVLNFTLEEVLFPQSDRFQPYMQEVVCFLARLSNRLSTCHIEGDDLHIQRNVQKLKDTVKKLGESGEIKAIGELDLLFMSLRNACI ... middle bin
60K-PEG-IL22-P50C (ligand, Cys at position 17 (SEQ ID NO:1 numbering) conjugated to 60 kDa PEG-maleimide (thioether linkage)) APISSHCRLDKSNFQQCYITNRTFMLAKEASLADNNTDVRLIGEKLFHGVSMSERCYLMKQVLNFTLEEVLFPQSDRFQPYMQEVVPFLARLSNRLSTCHIEGDDLHIQRNVQKLKDTVKKLGESGEIKAIGELDLLFMSLRNACI ... upper bin

Shifting focus to the binder that follows.
(Q) Exercise: read the entry 80K-PEG-IL22-D109C (ligand, Cys at position 76 (SEQ ID NO:1 numbering) conjugated to 80 kDa PEG-maleimide (thioether linkage)) APISSHCRLDKSNFQQPYITNRTFMLAKEASLADNNTDVRLIGEKLFHGVSMSERCYLMKQVLNFTLEEVLFPQSCRFQPYMQEVVPFLARLSNRLSTCHIEGDDLHIQRNVQKLKDTVKKLGESGEIKAIGELDLLFMSLRNACI and state which class it falls under.
(A) lower bin
